Entry source: PubChem BioAssay (NCI)

System: ACHN renal
Assay: NCI tumour cell line growth inhibition, 48 h; in the data active = GI50 below about 0.43 µM; inactive = the rest
One label from this list, please: Yes for active, No for inactive

Asked: Short answer needed: outcome of this test for COc1cc(/C=C/C(=O)/C=C/c2ccc(-n3ccnc3)cc2)ccc1O ?
Given back: No

Asked: And O=[N+]([O-])/C(=C/C=C/c1ccccc1)c1ccccc1 ?
Given back: No

Asked: And COc1ccc(C2=NOC3=c4ccccc4=CSC3=C2c2ccccc2)cc1 ?
Given back: No

Asked: And O=C(Cc1csc2nc(-c3ccc(Br)cc3)cn12)N/N=C/c1ccccc1O ?
Given back: No

Asked: And C#CCN(CCCOc1ccc(Cl)cc1Cl)CCCSC(=O)CCCCCN1/C(=C\C=C2/CCCC(/C=C/C3=[N+](CCCCCC(=O)[O-])c4ccccc4C3(C)C)=C2Cl)C(C)(C)c2ccccc21 ?
Given back: No

Asked: And CC[C@]1(O)C[C@@H]2CN(CCc3c([nH]c4ccccc34)[C@@](C(=O)OC)(c3cc4c(cc3OC)N(C)[C@H]3[C@@](O)(C(=O)OC)[C@H](OC(=O)CCCBr)[C@]5(CC)C=CCN6CC[C@]43[C@@H]65)C2)C1 ?
Given back: Yes

###

Test system: MALME-3M melanoma
Experiment: NCI tumour cell line growth inhibition, 48 h
Please provide measured TGI for the entries that follow.

Asked: What TGI appears in the records for this compound with MALME-3M melanoma? O=C(CC/C(CC(=O)c1ccc(Cl)cc1)=N\O)Nc1cccc(Cl)c1
Given back: > 100 µM

Asked: And CCCCCCCC(=O)OC[n+]1cccc(-c2c(COC(=O)NC(C)C)c(COC(=O)NC(C)C)c3n2CCC3)c1 ?
Given back: > 100 µM

Asked: And COC(=O)c1sc2c(Cl)c(Cl)sc2c1Cl ?
Given back: > 100 µM

Asked: And CCOC(=O)c1cnc2c(ccc3ncccc32)c1OCC ?
Given back: > 100 µM

Asked: And Cc1cc(C)n(C(=CC(=O)C(Cl)Cl)n2nc(C)cc2C)n1 ?
Given back: 15.7 µM

Asked: And CC1(C)O[C@@H](CCl)C[C@@H](C#N)O1 ?
Given back: > 100 µM

Asked: And O=C(c1ccccc1)C1C(c2ccccc2[N+](=O)[O-])N1C1CCCCC1 (stereo not drawn) ?
Given back: 29.4 µM

Asked: And CSC1=C(C)C(/C=N/Nc2ccc([N+](=O)[O-])cc2)=C(C)N(c2ccccc2)S1(=O)=O ?
Given back: > 100 µM

Asked: And CC[P+](c1ccccc1)(N(C)C)N(C)C ?
Given back: > 100 µM

Asked: And C#CCN(CCCOc1ccc(Cl)cc1Cl)CCCSC(=O)CCCCCN1/C(=C\C=C2/CCCC(/C=C/C3=[N+](CCCCCC(=O)[O-])c4ccccc4C3(C)C)=C2Cl)C(C)(C)c2ccccc21 ?
Given back: 2.85 µM

Asked: And CC(C)(C)OC(=O)N1CCC2(CC1)C(=O)NCN2c1ccccc1 ?
Given back: > 100 µM

Asked: And Nc1ncnc2c1ncn2CCCNO ?
Given back: > 100 µM

Asked: And O=C(CCCCCCCCC(=O)N1C(=O)CC(=O)N(c2ccc(Cl)cc2)C1=S)N1C(=O)CC(=O)N(c2ccc(Cl)cc2)C1=S ?
Given back: > 100 µM
